This collection of values is drawn from paper PMC5540273.

Known %Inh of a selection of compounds
Tested on: IRAK4
assay-conditions: concentration: 1 μM, replicates: in singlicate; n = 1
I only need the number, in %, no unit after it.

// below: answered compounds
[
  {
    "compound": "Cc1cc(Nc2nc(-c3cccc(C)n3)nc3ccccc23)ccn1 [GW872411]",
    "measurement-target": "IRAK4",
    "%Inh (%)": 0
  },
  {
    "compound": "CCC(=O)c1c(-c2ccccc2)c2cc(Cl)ccc2c(=O)n1Cc1cc(S(C)(=O)=O)n(CCC(C)(C)O)n1",
    "measurement-target": "IRAK4",
    "%Inh (%)": 1
  },
  {
    "compound": "O=c1cc(N2CCOCC2)nc2n(Cc3ccc(F)c(Cl)c3)ccn12 [GSK2297099]",
    "measurement-target": "IRAK4",
    "%Inh (%)": 16
  },
  {
    "compound": "COc1cc2ncn(-c3cc(OCc4ccncc4)c(C(N)=O)s3)c2cc1OC [GSK336313]",
    "measurement-target": "IRAK4",
    "%Inh (%)": 0
  },
  {
    "compound": "Cc1ccc(Oc2ccc(Nc3ncnc4cc[nH]c34)cc2C)cn1",
    "measurement-target": "IRAK4",
    "%Inh (%)": 0
  }
]

Would you kindly share the measured %Inh for Cc1nc(N(C)[C@H]2CN(C(=O)CC#N)CC[C@H]2C)c2cc[nH]c2n1 ?
0

For Nc1nc(N)c2nc(-c3ccccc3)[nH]c2n1 [SKF-12778] then?
3

For COc1cc2ncn(-c3cc(OCc4ccncc4Br)c(C(N)=O)s3)c2cc1OC [GW854278] then?
3

For CN1C(=O)C(Nc2cc(Cl)c(O)c(Cl)c2)=C(c2ccc(Cl)cc2)C1=O [SB-404321] then?
0

----------
Test system: VPS34;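 further: kd values determined as follow-up on hits from a single-replicate KINOMEscan panel screen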
Construct: gene PIK3C3
observable: Kd

Give VPS34 Kd for COc1ccc(Nc2nccc(N3CCC(NS(=O)(=O)c4ccc(NC(C)=O)cc4)C3)n2)cc1 (stereo not shown)
97 nM

For Cc1nn2c(=O)cc(N3CCOCC3)nc2n1Cc1cccc(Cl)c1Cl then?
0.43 nM

For O=c1cc(N2CCOCC2)nc2n(Cc3ccc(F)c(Cl)c3)ccn12 then?
15 nM

For Cc1ccccc1COc1cc(-n2cnc3cc(Cl)ccc32)sc1C(N)=O then?
> 10000 nM

----------
Tested on: p38-gamma
Construct: gene MAPK12
assay-conditions: concentration: 1 μM, replicates: in singlicate; n = 1
Known %Inh of a selection of compounds

// below: answered compounds
[
  {
    "compound": "Cc1cccc(-c2nc(Nc3ccc4c(cnn4C)c3)c3ccccc3n2)n1 [GW876731]",
    "%Inh": "16%"
  },
  {
    "compound": "COc1ccc(-c2cc3c(C)nc(N)nc3n([C@H]3CC[C@H](O)CC3)c2=O)cn1",
    "%Inh": "100%"
  },
  {
    "compound": "CCC(=O)c1c(-c2ccccc2)c2cc(Cl)ccc2c(=O)n1Cc1cc(S(C)(=O)=O)n(CC(N)=O)n1",
    "%Inh": "7%"
  }
]

Note: attention shifts to another entry.
Give p38-gamma %Inh for Cc1nn2c(=O)cc(N3CCOCC3)nc2n1Cc1cccc(Cl)c1Cl [GSK2342769]
0%
